system: YH-13; experiment: cells; assay type: functional, cell-based; conditions: Homo sapiens;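 also: cell viability readout of growth suppression in the human YH-13 cell line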
Description: SANGER: Inhibition of human YH-13 cell growth in a cell viability assay.
measured.parameter: IC50

[[record]]
molecule = "O=C1NC(=O)c2c1c(-c1ccccc1Cl)cc1[nH]c3ccc(O)cc3c21"
measured_parameter = "IC50"
measurement = "> 2 µM"

[[record]]
molecule = "NC(=O)c1ccc(N(C(N)=O)c2c(F)cccc2F)nc1-c1ccc(F)cc1F [VX-702]"
measured_parameter = "IC50"
measurement = "> 2 µM"


Consider the additional molecule presented here.
get_value(item= NC1(c2ccc(-c3nc4ccn5c(=O)[nH]nc5c4cc3-c3ccccc3)cc2)CCC1 [MK-2206] , readout=IC50) returns 2.46 µM
